Overview of recorded Kd for various binders
- TARGET UNDER TEST: T1, CCL4 (Homo sapiens, UniProt P13236, biotin (sulfo-NHS-LC-biotin) in the Biacore and streptavidin-plate ELISA experiments; not biotinylated where coated directly)
- T1 construct: CCL4, human, recombinant chemokine from PeproTech
- T1 sequence (P13236 24-92): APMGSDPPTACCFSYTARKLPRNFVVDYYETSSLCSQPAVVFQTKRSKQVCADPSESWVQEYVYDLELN
- MEASUREMENT PROTOCOL: SPR; Biacore 2000; biotinylated CCL3, CCL4, CCL5 immobilised on a streptavidin chip (~100 RU); Fabs flowed over at 500 pM to 1 µM; regeneration 10 mM glycine pH 1.5; triplicate; 1:1 Langmuir fit, murine and humanized 18V4F Fabs fit to a steady state model
- DETAILS: both partners purified
Field format: number, assumed nM, no unit text.

{"columns": ["BINDER", "REPORTED VALUE"],
 "data": [
  ["humanized 18V4F Fab (Fab, V domains shown, also called Hu-18V4F) VH: EVQLVESGGGLVQPGGSLRLSCAASGFSLTGYAMHWVRQAPGKGLEWVGVIWPGGGTNYNSALMSRFTISKDNSKNTVYLQMNSLRAEDTAVYYCARGPLITTEVSMDYWGQGTLVTVSS VL: SAEVTQPPSVSVSPGQTARITCSSNTGAVTTSNYANWVQQKPGQAPVGLIGGTNERPSGIPERFSGSSSGNTATLTISGAQAEDEADYYCALWYSNHWVFGGGTKLTVL", 251]
]}

Exam item: What value of Kd has been reported for the following binder? d5d7 Fab (Fab, V domains shown, also called 18V4F Fab variant d5d7; not shown: His6, C-terminal, kept) VH: EVQLVESGGGLVQPGGSLRLSCAASGFSLYDEGAHWVRQAPGKGLEWVGVIWPGGGTNYNSALMSRFTISKDNSKNTVYLQMNSLRAEDTAVYYCARGPLITTEVSMDYWGQGTLVTVSS VL: SAEVTQPPSVSVSPGQTARITCSSNTPLRPYRNYANWVQQKPGQAPVGLIGGTNERPSGIPERFSGSSSGNTATLTISGAQAEDEADYYCALWYSNHWVFGGGTKLTVL
Marked response: 1.8

Exam item: What value of Kd has been reported for the following binder? murine 18V4F Fab (Fab, V domains shown, also called Mu-18V4F) VH: QVQLKESGPGLVAPSQSLSITCTVSGFSLTGYGIHWVRQPPGKGLEWLGVIWPGGGTNYNSALMSRLSISKDNSKSQVFLKMNSLQTDDTAMYYCARGPLITTEVSMDYWGQGTSVTVSS VL: QAVVTQESALTTSPGETVTLTCRSNTGAVTTSNYANWVQEKPDHLFTGLIGGTNNRAPGVPARFSGSLIGDKAALTITGAQTEDEAIYFCALWYSNHWVFGGGTKLTVL
Marked response: 103

Exam item: What value of Kd has been reported for the following binder? 18V4F Fab variant d7 (Fab, V domains shown) VH: EVQLVESGGGLVQPGGSLRLSCAASGFSLYDEGAHWVRQAPGKGLEWVGVIWPGGGTNYNSALMSRFTISKDNSKNTVYLQMNSLRAEDTAVYYCARGPLITTEVSMDYWGQGTLVTVSS VL: SAEVTQPPSVSVSPGQTARITCSSNTGAVTTSNYANWVQQKPGQAPVGLIGGTNERPSGIPERFSGSSSGNTATLTISGAQAEDEADYYCALWYSNHWVFGGGTKLTVL
Marked response: 7.3
